Here, each record is paired with measured Enzyme degradation CDK9 (% remaining) @ 10 μM data.
Molecular target: CDK9 (Homo sapiens)
Construct: endogenous in cells; host or cells: MDA-MB-231
Assay: CDK protein degradation activity (Western blotting), CDK9
Type: cell-based
Details: MDA-MB-231 cells, 10 μM, 16 hours, Western blot

Past entries and their recorded results:
| compound | observed measurement |
| --- | --- |
| O=C1CCC(c2cccc(OCC(=O)N3CCC4(CC(N5CCN(c6ccc(Nc7ncnc8c7ncn8[C@H]7C[C@@H](NC(=O)Cc8ccccc8)C7)cc6)CC5)C4)C3)c2)C(=O)N1 (stereo partly shown) | 10% |
| O=C1CCC(N2C(=O)c3ccc(N4CCC(OCCN5CCN(c6ccc(Nc7ncnc8c7ncn8[C@H]7C[C@@H](NC(=O)Cc8ccccc8)C7)cc6)CC5)CC4)cc3C2=O)C(=O)N1 (stereo partly shown) | 60/60/60% |
| O=C1CC[C@H](n2nnc3ccc(N4CCC(CN5CCN(c6ccc(Nc7ncnc8c7ncn8[C@H]7C[C@@H](NC(=O)c8cccc(C(F)(F)F)n8)C7)cc6)CC5)CC4)cc3c2=O)C(=O)N1 | 0/0/0% |
| Cc1cccc(C(=O)N[C@H]2C[C@H](n3cnc4c(NCC5CCN(CC6CCN(C(=O)CNc7cccc8c7C(=O)N(C7CCC(=O)NC7=O)C8=O)CC6)CC5)ncnc43)C2)n1 (stereo partly shown) | 10% |
| Cc1cccc(C(=O)N[C@H]2C[C@@H](n3cnc4c(NCc5ccc(OCC6CCN(C(=O)CNc7ccc8c(c7)C(=O)N([C@H]7CCC(=O)NC7=O)C8=O)CC6)cc5)ncnc43)C2)n1 | 0/0/0% |
| O=C1CC[C@H](N2C(=O)c3ccc(NCC(=O)N4CCC5(CC4)CC(N4CCN(c6ccc(Nc7ncnc8c7ncn8C7CC(NC(=O)c8c(Cl)cccc8Cl)C7)cc6)CC4)C5)cc3C2=O)C(=O)N1 (stereo partly shown) | 0/0/0% |

Request the reported Enzyme degradation CDK9 (% remaining) @ 10 μM associated with O=C1CC[C@H](n2nnc3ccc(N4CCC(CCCN5CCN(c6ccc(Nc7ncnc8c7ncn8C7CC(NC(=O)Cc8ccccc8)C7)cc6)CC5)CC4)cc3c2=O)C(=O)N1 (stereo partly shown)
10/10/10%

Same question, Cc1cccc(C(=O)N[C@H]2C[C@@H](n3cnc4c(Nc5ccc(N6CCN(CC7CCN(C(=O)COc8ccc9c(c8)C(=O)N([C@H]8CCC(=O)NC8=O)C9=O)CC7)CC6)cc5)ncnc43)C2)n1 this time
0/0/0%

Same question, O=C1CC[C@H](N2C(=O)c3cccc(OCC(=O)N4CCC(CN5CCC(CNc6ncnc7c6ncn7C6CC(NC(=O)c7c(Cl)cccc7Cl)C6)CC5)CC4)c3C2=O)C(=O)N1 (stereo partly shown) this time
10%

Same question, O=C1CC[C@@H](c2ccc(OCC(=O)N3CCC(CN4CCN(c5ccc(Nc6ncnc7c6ncn7[C@H]6C[C@@H](NC(=O)c7cccc(Cl)n7)C6)cc5)CC4)CC3)cc2)C(=O)N1 this time
10/10/10%

###

Target: CDK2 (Homo sapiens)
Construct: endogenous in cells; host or cells: MDA-MB-231
Assay: CDK protein degradation activity (Western blotting), CDK2
Assay type: cell-based
Details: MDA-MB-231 cells, 10 μM, 16 hours, Western blot
value kind: Enzyme degradation CDK2 (% remaining) @ 10 μM (%)

| compound | tested target | observed measurement |
| --- | --- | --- |
| COc1ccc(C(=O)N2CCC(CCCN3CCN(c4ccc(Nc5ncnc6c5ncn6[C@H]5C[C@@H](NC(=O)Cc6ccccc6)C5)cc4)CC3)CC2)cc1N1CCC(=O)NC1=O | CDK2 (Homo sapiens) | 20 |

a. O=C1CC[C@H](N2C(=O)c3cc(F)c(N4CCC5(CC4)CC(N4CCN(c6ccc(Nc7ncnc8c7ncn8[C@H]7C[C@@H](NC(=O)Cc8ccccc8)C7)cc6)CC4)C5)cc3C2=O)C(=O)N1
b. Cc1cccc(C(=O)NC2CC(n3cnc4c(NCCC5CCN(CC6CCN(C(=O)COc7cccc8c7C(=O)N([C@H]7CCC(=O)NC7=O)C8=O)CC6)CC5)ncnc43)C2)n1 (stereo partly drawn)
Param metric = Enzyme degradation CDK2 (% remaining) @ 10 μM; output whichever of a , b has the minimum value. // caller expects the label of the chosen entry
b

###

Target: CDK2 (Homo sapiens)
Construct: endogenous in cells; host or cells: MDA-MB-231
Experiment: CDK protein degradation activity (Western blotting), CDK2
Assay type: cell-based
Conditions: MDA-MB-231 cells, 0.1 μM, 16 hours, Western blot
value kind: Enzyme degradation CDK2 (% remaining) @ 0.1 μM (%)

1. O=C1CCC(N2C(=O)c3ccc(N4CCC(C(=O)N5CCN(CC6CCN(c7ccc(Nc8ncnc9c8ncn9[C@H]8C[C@@H](NC(=O)c9c(Cl)cccc9Cl)C8)cc7)CC6)CC5)CC4)cc3C2=O)C(=O)N1 (stereo partly drawn)
2. O=C1CC[C@H](N2C(=O)c3ccc(N4CC(C(=O)N5CCC(CN6CCN(c7ccc(Nc8ncnc9c8ncn9C8CC(NC(=O)c9cccc(Cl)n9)C8)cc7)CC6)CC5)C4)cc3C2=O)C(=O)N1 (stereo partly drawn)
Param metric = Enzyme degradation CDK2 (% remaining) @ 0.1 μM; output whichever of 1 , 2 has the minimum value. // caller expects the label of the chosen entry
1
(1: 20%, 2: 50%)

###

Molecular target: CDK9 (Homo sapiens)
Construct: endogenous in cells; host or cells: MDA-MB-231
Test: CDK protein degradation activity (Western blotting), CDK9
Type: cell-based
Conditions: MDA-MB-231 cells, 10 μM, 16 hours, Western blot
value kind: Enzyme degradation CDK9 (% remaining) @ 10 μM (%)

Past entries and their recorded results:
| compound | readout units | observed measurement |
| --- | --- | --- |
| O=C1CC[C@H](N2C(=O)C=C(N3CCC(C(=O)N4CCC5(CC4)CC(N4CCN(c6ccc(Nc7ncnc8c7ncn8C7CC(NC(=O)Cc8ccccc8)C7)cc6)CC4)C5)CC3)C2=O)C(=O)N1 (stereo partly shown) | % | 10 |
| Cc1cccc(C(=O)N[C@H]2C[C@@H](n3cnc4c(NCCC5CCN(CC6CCN(C(=O)CCNc7ccc8c(c7)C(=O)N([C@H]7CCC(=O)NC7=O)C8=O)CC6)CC5)ncnc43)C2)n1 (racemic) | % | 0 |
| Cc1cccc(C(=O)N[C@H]2C[C@@H](n3cnc4c(NC5CCN(CCC6CCN(c7cccc8c7C(=O)N([C@H]7CCC(=O)CC7=O)C8=O)CC6)CC5)ncnc43)C2)n1 | % | 20 |
| O=C1CC[C@H](N2C(=O)c3cccc(CCCN4CCC(CN5CCN(c6ccc(Nc7ncnc8c7ncn8C7CC(NC(=O)c8cccc(C(F)(F)F)n8)C7)cc6)CC5)CC4)c3C2=O)C(=O)N1 (stereo partly shown) | % | 20 |

I. O=C1CC[C@H](N2C(=O)c3ccc(N4CC(C(=O)N5CCN(C6CN(c7ccc(Nc8ncnc9c8ncn9[C@H]8C[C@@H](NC(=O)Cc9ccccc9)C8)cc7)C6)CC5)C4)cc3C2=O)C(=O)N1
II. O=C1CC[C@H](N2C(=O)c3ccc(N4CC(CN5CCC(CCN6CCN(c7ccc(Nc8ncnc9c8ncn9[C@H]8C[C@@H](NC(=O)Cc9ccccc9)C8)cc7)CC6)CC5)C4)cc3C2=O)C(=O)N1
III. O=C1CC[C@@H](c2ccc(OCC(=O)N3CCC(CC(=O)N4CCN(c5ccc(Nc6ncnc7c6ncn7C6CC(NC(=O)Cc7ccccc7)C6)cc5)CC4)CC3)cc2)C(=O)N1 (stereo partly shown)
Sort the compounds on Enzyme degradation CDK9 (% remaining) @ 10 μM; start with the lowest figure. Response format: the labels, sorted as the prompt asks.
III, II, I

###

Target: CDK2 (Homo sapiens)
Construct: endogenous in cells; host or cells: MDA-MB-231
Test: CDK protein degradation activity (Western blotting), CDK2
Format: cell-based
Conditions: MDA-MB-231 cells, 10 μM, 16 hours, Western blot
value kind: Enzyme degradation CDK2 (% remaining) @ 10 μM (%)

| molecule | observed measurement |
| --- | --- |
| O=C1CC[C@@H](c2ccc(OCC(=O)N3CCC(OCCN4CCN(c5ccc(Nc6ncnc7c6ncn7C6CC(NC(=O)Cc7ccccc7)C6)cc5)CC4)CC3)cc2)C(=O)N1 (stereo partly drawn) | 30 |
| Cc1cccc(C(=O)NC2CC(n3cnc4c(NC5CCN(CCCN6CCN(c7cccc8c7C(=O)N([C@H]7CCC(=O)NC7=O)C8=O)CC6)CC5)ncnc43)C2)n1 (stereo partly drawn) | 30 |

###

Biological target: CDK9 (Homo sapiens, UniProt P50750)
Construct: endogenous in cells; host or cells: MDA-MB-231
Sequence (P50750 whole entry): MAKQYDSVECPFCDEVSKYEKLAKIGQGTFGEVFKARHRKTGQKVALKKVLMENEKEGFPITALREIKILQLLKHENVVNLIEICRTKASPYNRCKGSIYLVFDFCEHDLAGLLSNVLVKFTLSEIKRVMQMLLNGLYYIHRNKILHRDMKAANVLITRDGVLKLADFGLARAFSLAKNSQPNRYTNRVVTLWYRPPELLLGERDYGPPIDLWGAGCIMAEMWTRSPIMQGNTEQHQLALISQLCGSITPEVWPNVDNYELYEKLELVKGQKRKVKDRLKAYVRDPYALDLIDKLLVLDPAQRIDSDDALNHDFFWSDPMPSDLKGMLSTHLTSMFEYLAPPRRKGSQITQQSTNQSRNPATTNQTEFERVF
Test: CDK protein degradation activity (Western blotting), CDK9
Format: cell-based
Settings: MDA-MB-231 cells, 1 μM, 16 hours, Western blot
value kind: Enzyme degradation CDK9 (% remaining) @ 1 μM (%)

| molecule | readout units | observed measurement |
| --- | --- | --- |
| O=C1CC[C@H](N2C(=O)c3ccc(N4CCN(CCC5CCN(c6ccc(Nc7ncnc8c7ncn8[C@H]7C[C@@H](NC(=O)Cc8ccccc8)C7)cc6)CC5)CC4)cc3C2=O)C(=O)N1 | % | 0 |

a. O=C1CCC(N2C(=O)c3ccc(N4CCN(CCCN5CCN(c6ccc(Nc7ncnc8c7ncn8[C@H]7C[C@@H](NC(=O)Cc8ccccc8)C7)cc6)CC5)CC4)cc3C2=O)C(=O)N1 (stereo partly shown)
b. Cc1cccc(C(=O)N[C@H]2C[C@@H](n3cnc4c(NC5CCN(C(=O)CC6CCN(C(=O)COc7cccc8c7C(=O)N([C@H]7CCC(=O)NC7=O)C8=O)CC6)CC5)ncnc43)C2)n1
c. CC(=O)NC1CC(n2cnc3c(NCC4CCN(CC5CCN(C(=O)COc6cccc7c6C(=O)N([C@H]6CCC(=O)NC6=O)C7=O)CC5)CC4)ncnc32)C1 (stereo partly shown)
Sort the molecules on Enzyme degradation CDK9 (% remaining) @ 1 μM; start with the lowest figure. Response format: the labels, sorted as the prompt asks.
a, c, b
(a: 0%, c: 40%, b: 60%)
